Each recorded value in this set is attributed to patent US20240084003A1.

List of Proportion of chimeric antibody positive cells to B cells (%) values.
Target: T1, CD22 on cynomolgus monkey peripheral blood B cells (cynomolgus monkey (Macaca fascicularis))
T1 construct: whole, on cells; also called cynomolgus monkey B cells
Assay: FACS, cynomolgus PBMC, CD20+ B cells, antibody 1 nM
Endpoint Label: Proportion of chimeric antibody positive cells to B cells (%)

Binder: F1.161.7 (antibody, human IgG1, kappa, V domains shown, human-murine chimeric IgG1 kappa) VH: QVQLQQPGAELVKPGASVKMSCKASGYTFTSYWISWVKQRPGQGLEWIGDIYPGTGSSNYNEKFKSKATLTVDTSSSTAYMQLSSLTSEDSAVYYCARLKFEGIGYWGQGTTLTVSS VL: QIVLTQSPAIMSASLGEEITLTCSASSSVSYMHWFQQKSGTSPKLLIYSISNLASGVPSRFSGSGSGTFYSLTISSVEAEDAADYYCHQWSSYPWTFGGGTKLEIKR
Display Unit: %
Result Value: 16
--
Binder: F2.173.9 (antibody, human IgG1, lambda, V domains shown, human-murine chimeric IgG1 lambda) VH: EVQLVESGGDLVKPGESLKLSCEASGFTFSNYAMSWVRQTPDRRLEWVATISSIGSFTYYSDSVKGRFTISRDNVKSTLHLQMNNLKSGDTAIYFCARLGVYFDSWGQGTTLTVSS VL: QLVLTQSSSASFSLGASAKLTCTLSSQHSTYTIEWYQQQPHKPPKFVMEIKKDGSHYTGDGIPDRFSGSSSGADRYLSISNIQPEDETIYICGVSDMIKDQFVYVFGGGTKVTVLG
Display Unit: %
Result Value: 19
--
Binder: F2.121.9 (antibody, human IgG1, lambda, V domains shown, human-murine chimeric IgG1 lambda) VH: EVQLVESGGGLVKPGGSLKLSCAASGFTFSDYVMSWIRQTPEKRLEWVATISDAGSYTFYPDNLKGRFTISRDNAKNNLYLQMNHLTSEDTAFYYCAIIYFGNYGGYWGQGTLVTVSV VL: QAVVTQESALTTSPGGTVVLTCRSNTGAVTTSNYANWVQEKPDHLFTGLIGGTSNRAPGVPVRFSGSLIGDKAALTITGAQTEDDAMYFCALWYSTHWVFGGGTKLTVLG
Display Unit: %
Result Value: 27
--
Binder: F2.343.16 (antibody, human IgG1, lambda, V domains shown, human-murine chimeric IgG1 lambda; VL name legible) VH: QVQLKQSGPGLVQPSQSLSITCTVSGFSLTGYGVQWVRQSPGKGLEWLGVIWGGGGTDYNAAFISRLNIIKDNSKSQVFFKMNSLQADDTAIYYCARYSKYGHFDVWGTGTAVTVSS VL: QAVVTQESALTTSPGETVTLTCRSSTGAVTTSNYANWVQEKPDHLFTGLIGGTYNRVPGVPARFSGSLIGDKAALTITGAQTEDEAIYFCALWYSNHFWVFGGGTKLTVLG
Display Unit: %
Result Value: 21
--
Binder: F1.231.15 (antibody, IgG1, V domains shown, human-murine chimeric IgG1 kappa) VH: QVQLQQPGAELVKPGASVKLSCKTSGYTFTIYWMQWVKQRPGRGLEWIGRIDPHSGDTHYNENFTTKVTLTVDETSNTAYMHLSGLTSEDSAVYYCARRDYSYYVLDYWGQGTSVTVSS VL: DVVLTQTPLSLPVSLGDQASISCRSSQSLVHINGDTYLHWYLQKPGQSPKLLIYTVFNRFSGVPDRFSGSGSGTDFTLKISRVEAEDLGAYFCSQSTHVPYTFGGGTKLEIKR
Display Unit: %
Result Value: 11
